- ASSAY SUMMARY: Antagonist activity at human recombinant CCR8 expressed in Th2 cells assessed as I309 mediated migration by chemotaxis assay
REPORTED PROPERTY: IC50
Provide a numeric answer, followed by its unit.

Briefly, IC50 measured for COc1ccc2nccc([C@@H]3CN(C4CCN(Cc5cc6ccccc6[nH]5)CC4)C(=O)O3)c2c1 [SB-649701] : 100 nM

----------
- ASSAY SUMMARY: Antagonist activity at human recombinant CCR8 expressed in HUT78 cells assessed as I309-mediated migration by chemotaxis assay
REPORTED PROPERTY: IC50

Briefly, IC50 measured for COc1ccc2nccc([C@@H]3CN(C4CCN(Cc5cc6ccccc6[nH]5)CC4)C(=O)O3)c2c1 : 0.501 µM
